TEST SYSTEM: Alpha-2B adrenergic receptor (Homo sapiens) (UniProt P18089)
Sequence (whole entry): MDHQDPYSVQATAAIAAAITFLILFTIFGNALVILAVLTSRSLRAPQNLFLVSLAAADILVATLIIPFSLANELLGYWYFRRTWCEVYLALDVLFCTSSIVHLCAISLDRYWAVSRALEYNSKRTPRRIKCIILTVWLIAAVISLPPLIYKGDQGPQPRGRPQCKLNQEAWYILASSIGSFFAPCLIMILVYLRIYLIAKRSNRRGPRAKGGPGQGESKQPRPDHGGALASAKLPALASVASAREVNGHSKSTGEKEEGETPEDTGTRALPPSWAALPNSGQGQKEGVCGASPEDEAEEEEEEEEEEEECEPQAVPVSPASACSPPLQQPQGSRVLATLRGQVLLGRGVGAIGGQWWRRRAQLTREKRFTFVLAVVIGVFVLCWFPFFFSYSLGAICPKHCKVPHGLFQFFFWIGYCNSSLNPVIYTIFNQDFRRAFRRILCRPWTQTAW
CONDITION LABEL: Compound concentration 10 µM
Description: PDSP Primary Binding target: ADRA2B - Compounds are tested at 10 uM concentration, plate are incubated at room temperature in the dark for 90 minutes. Reaction are stopped by vacuum filtration onto 0.3% polyethyleneimine soaked filter mats using Filtermate harvester. Scintilation cocktail is then melted onto microwave-dried filters on a hot plate and the radio activity is counted in Microbia counter.
Note to self: values exactly at 20% are MET. So inhibition at or above 20% is MET, below is NOT MET.

These solved cases illustrate the format of a correct answer.
CHEMICAL SMILES	CATEGORY
Cc1cc(C(=O)N2Cc3cnn(C)c3Nc3ccccc32)ccc1CNC(=O)N1CCC[C@H]1C(=S)N1CCCN(C)CC1	NOT MET
COc1cccc(-c2c(C)n(Cc3c(F)cccc3C(F)(F)F)c(=O)n(C[C@H](NCCCC(=O)O)c3ccccc3)c2=O)c1F	NOT MET
CCCCN1CCC(COC(=O)c2cc(Cl)c(N)c3c2OCCO3)CC1	MET

Please examine the following record next.
Prompt: Hi, just wondering whether `N#Cc1c(O)nc(SCc2cccc(F)c2F)nc1C1CC1` shows inhibition of 20% or higher.
Completion: NOT MET
